Target: ATP-sensitive inward rectifier potassium channel 11 (Homo sapiens)
Sequence (Q14654 whole entry): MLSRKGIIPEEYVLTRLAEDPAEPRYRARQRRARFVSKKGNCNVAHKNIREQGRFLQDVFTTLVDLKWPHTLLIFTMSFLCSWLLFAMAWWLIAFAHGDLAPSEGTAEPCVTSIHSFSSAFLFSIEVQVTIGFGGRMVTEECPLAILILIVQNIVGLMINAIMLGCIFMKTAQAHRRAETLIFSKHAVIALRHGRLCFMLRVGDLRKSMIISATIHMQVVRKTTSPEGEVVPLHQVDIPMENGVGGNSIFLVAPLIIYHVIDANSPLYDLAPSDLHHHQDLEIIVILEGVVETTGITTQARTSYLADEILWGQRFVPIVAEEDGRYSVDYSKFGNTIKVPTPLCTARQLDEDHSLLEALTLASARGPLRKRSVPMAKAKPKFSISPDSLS
Experiment: Channel opening activity at human bladder Kir6.2 channel containing SUR2B expressed in L cells by FLIPR assay
MEASUREMENT_KIND: EC50 (nM)
# number only, unit nM dropped from output

Worked examples follow.
Lab note: measured EC50 of CC(Cl)(Cl)C(NC(=O)c1cccs1)N/C(=N/C#N)Nc1ccc(F)nc1 (centres undefined) was 4570

Lab book: EC50 of `CC(Cl)(Cl)[C@@H](NC(=O)c1ccc(Cl)cc1)N/C(=N/C#N)Nc1cccnc1` noted as 339

Quick note, EC50 for Cc1ccc(N/C(=N\C#N)NC(NC(=O)c2ccc(Cl)cc2)C(C)(Cl)Cl)cn1 (centres undefined) landed at 2240

The molecule identified as Cc1cccc(C(=O)NC(N/C(=N/C#N)Nc2cncc(Br)c2)C(C)(Cl)Cl)c1 (centres undefined) registered its EC50 at 1660

# molecule CC(Cl)(Cl)C(NC(=O)c1ccc(Cl)cc1)N/C(=N/C#N)Nc1ccc(Cl)nc1 (centres undefined) ; its EC50 = 457

More entries:
The measured EC50 associated with COc1ccc(N/C(=N\C#N)NC(NC(=O)c2ccc(Cl)cc2)C(C)(Cl)Cl)cn1 (centres undefined) reads 10500

# EC50 (molecule: CC(Cl)(Cl)C(NC(=O)c1cccc(Cl)c1)N/C(=N/C#N)Nc1ccc(C(F)(F)F)nc1 (centres undefined) ) is 6760

Summary for this molecule, Cc1nc(C(F)(F)F)ccc1N/C(=N\C#N)NC(NC(=O)c1ccc(Cl)cc1)C(C)(Cl)Cl (centres undefined) : EC50 is 9550

// EC50 value for CC(Cl)(Cl)C(NC(=O)c1cccs1)N/C(=N/C#N)Nc1cncc(Br)c1 (centres undefined) : 1290

====

Biological target: ATP-sensitive inward rectifier potassium channel 11 (Homo sapiens, UniProt Q14654)
Test: Channel opening activity at human bladder Kir6.2 channel containing SUR2B expressed in L cells by FLIPR assay
MEASUREMENT_KIND: EC50 (nM)
Kindly answer with a numeric value in nM, unit omitted.

Example compounds with recorded EC50:
Field EC50 (entry CC(Cl)(Cl)C(NC(=O)c1cccc(F)c1)N/C(=N/C#N)Nc1ccc(C(F)(F)F)nc1 (centres undefined) ) reads 2290

The compound listed as `CC(Cl)(Cl)[C@@H](NC(=O)c1ccc(Cl)cc1)N/C(=N/C#N)Nc1ccc(Cl)nc1` has a reported EC50 of 1070

So, CC(Cl)(Cl)C(NC(=O)c1cccs1)N/C(=N/C#N)Nc1ccc(Cl)nc1 (centres undefined) ? Its EC50 was 2750

More entries:
Lab book: EC50 of CC(Cl)(Cl)C(NC(=O)c1cccc(Cl)c1)N/C(=N/C#N)Nc1ccc(F)nc1 (centres undefined) noted as 2290

So for CC(Cl)(Cl)C(NC(=O)c1cc(F)cc(F)c1)N/C(=N/C#N)Nc1cncc(Br)c1 (centres undefined) , the logged EC50 turned out to be 1100
